Ref: patent US20210196796A1

systemTested: T1, orthogonal hCD122 receptor (hoRb), hCD122 with H133D and Y134F (human, UniProt P14784 27-550); note: reference of the scale not given here
T1 sequence: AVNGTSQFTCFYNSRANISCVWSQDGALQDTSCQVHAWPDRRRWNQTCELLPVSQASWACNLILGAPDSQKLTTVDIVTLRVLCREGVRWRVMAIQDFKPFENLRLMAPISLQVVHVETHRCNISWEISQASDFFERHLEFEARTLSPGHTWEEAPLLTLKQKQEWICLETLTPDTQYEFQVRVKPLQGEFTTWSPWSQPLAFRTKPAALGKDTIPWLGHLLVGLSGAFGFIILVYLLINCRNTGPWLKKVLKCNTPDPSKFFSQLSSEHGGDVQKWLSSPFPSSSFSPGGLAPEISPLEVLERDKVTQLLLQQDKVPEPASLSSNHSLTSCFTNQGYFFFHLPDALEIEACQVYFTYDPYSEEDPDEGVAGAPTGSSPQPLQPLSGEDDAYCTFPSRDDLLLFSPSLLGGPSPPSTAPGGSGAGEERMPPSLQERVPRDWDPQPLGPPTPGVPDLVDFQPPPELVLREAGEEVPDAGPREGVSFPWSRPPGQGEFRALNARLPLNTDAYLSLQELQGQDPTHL
assaySummary: cell-based or functional assay
readoutLabel: Relative Proliferation Fold Change NKL 1:10 (fold)

A = ΔG27, SQVLKA (ligand) APTSSSTKKTQLQLSQLLVLLKAILNINNYKNPKLTRMLTFKFYMPKKATELKHLQCLEEELKPLEEVLNLAQSKNFHLRPRDLISNINVIVLELKGSETTFMCEYADETATIVEFLNRWITFCQSIISTLT
B = Δ88N, SQVLKA (ligand) APTSSSTKKTQLQLSQLLVLLKAILNGINNYKNPKLTRMLTFKFYMPKKATELKHLQCLEEELKPLEEVLNLAQSKNFHLRPRDLISINVIVLELKGSETTFMCEYADETATIVEFLNRWITFCQSIISTLT
Query: Sorting ascending by Relative Proliferation Fold Change NKL 1:10, which comes first: A or B ? Field: selected label. Fill in the label of the entry you choose.
Response: B
